MEASUREMENT_PROTOCOL: Plasma pharmacokinetics of lestaurtinib
ASSAY_SETUP: human, po, 85 mg/m2
VALUE_TYPE: AUC(0-inf) (ng·h/mL)
Lab book: enter the figure in ng·h/mL, no units written.

Quick note, AUC(0-inf) for C[C@]12O[C@H](C[C@]1(O)CO)n1c3ccccc3c3c4c(c5c6ccccc6n2c5c31)CNC4=O landed at 15600

----------
MEASUREMENT_PROTOCOL: Plasma pharmacokinetics of lestaurtinib
ASSAY_SETUP: human, po, 45 mg/m2
VALUE_TYPE: AUC(0-t) (ng·h/mL)
Lab book: enter the figure in ng·h/mL, no units written.

Quick note, AUC(0-t) for C[C@]12O[C@H](C[C@]1(O)CO)n1c3ccccc3c3c4c(c5c6ccccc6n2c5c31)CNC4=O landed at 15900
